Values compiled from patent US20130129746A1.

Biological target: T1, Human Serum Albumin (human, UniProt P02768 25-609)
T1 construct: mature; purified protein on CM5 chips for BIAcore; also called HSA; human SA
Experiment: BIAcore SPR
assay_metric: Ka (M⁻¹)
Your answer is read as M⁻¹, so omit the unit and give the number.

Examples from the recorded data:
DOM7h-11-90 (other, Vk dAb; also called DOM7h-11-57 W108R/N106I) VL: DIQMTQSPSSLSASVGDRVTITCRASRPIGTMLSWYQQKPGKAPKLLILAFSRLQSGVPSRFSGSGSGTDFTLTISNLQPEDFATYYCAQAGTHPTTFGQGTKVEIKR    5.27e+07
DOM7h-11-87 (other, Vk dAb; also called DOM7h-11-67 W108R/N106I) VL: DIQMTQSPSSLSASVGDRVTITCRASRPIGTMLSWYQQKPGKAPKLLILAFSRLQSGVPSRFSGSGSGTDFTLTISSLQPEDFATYYCAQAGTHHTTFGQGTKVEIKR    1.37e+08
DOM7h-11-88 (other, Vk dAb; also called DOM7h-11-67 W108R) VL: DIQMTQSPSSLSASVGDRVTITCRASRPIGTMLSWYQQKPGKAPKLLILAFSRLQSGVPSRFSGSGSGTDFTLTISSLQPEDFATYYCAQAGTHHTTFGQGTKVENKR    1.51e+08

Input line: Which measured Ka value corresponds to DOM7h-11-86 (other, Vk dAb; also called DOM7h-11-65 W108R/N106I) VL: DIQMTQSPSSLSASVGDRVTITCRASRPIGTMLSWYQQKPGKAPKLLILAFSRLQSGVPSRFSGSGSGTDFTLTISSLQPEDVATYYCAQAGTHPTTFGQGTKVEIKR ?
Output line: 9.51e+07
